Origin of the recorded values: PubChem BioAssay AID1159580

Test: chemical genetic growth profiling, strain panel (AID 1159580);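 further: tested at 20 µM; growth read once vehicle control cultures reached saturation at 30 °C; 1 = growth at the plate median or of vehicle wells; lower values mean less growth of the strain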
Settings: S. cerevisiae deletion strains, growth OD, locus YAL030W, strain snc1, hits give low values
The whole screen tested about 5,500 compounds, of which about 2,000 (36%) were called active. Roughly 18% stayed inconclusive and do not appear here. The list shows a part of the results.
Reported values of normalized growth for individual entries
Please give the numeric answer without any surrounding text.

{"MOLECULE": "CC1=C2C(O)C(=O)OC3CC4C(C)(C)C(=O)C=C[C@]4(C)C(CC1)[C@]23C (some centres not stated)", "normalized growth": 1.01}

Fill blank: measured normalized growth of the molecule COC(=O)[C@H]1[C@H]2C[C@H]3c4[nH]c5cc(OC)ccc5c4CCN3C[C@H]2C[C@@H](OC(=O)c2cc(OC)c(OC)c(OC)c2)[C@@H]1OC is ____.
1.01

For the molecule NC[C@H]1O[C@H](OC2[C@@H](N)C[C@@H](N)[C@H](O[C@H]3O[C@H](CO)[C@@H](O)[C@H](N)[C@H]3O)[C@H]2O)[C@H](O)[C@@H](O)[C@@H]1O (some centres not stated) , what normalized growth is on record?
1

Which normalized growth is reported for this molecule? C=CCSSCC=C
1.03

----------
Assay: chemical genetic growth profiling, strain panel (AID 1159580)
Settings: S. cerevisiae deletion strains, growth OD, locus YNL233W, strain BNI4, hits give low values
In all, about 5,500 compounds went through this assay and about 2,000 (36%) were called active. About 18% were inconclusive and are not listed. Some of the results follow.
Reported normalized growth values follow for various compounds
The answer should be written as a number, with no unit following it.

Recorded results for 2 compounds are shown here.
{"SMILES CODE": "COc1cc(C)c2c(=O)c3c(O)cc(OC)cc3oc2c1", "normalized growth": 1.01}
{"SMILES CODE": "C[C@]12CCC(=O)C=C1CCc1ccc(O)cc12", "normalized growth": 0.99}

Using the record for NCCCN , report its normalized growth.
1.01

----------
Quick reference: normalized growth of the listed items.
Assay: chemical genetic growth profiling, strain panel (AID 1159580)
Details: S. cerevisiae deletion strains, growth OD, locus YNR052C, strain pop2, hits give low values
The campaign covered roughly 5,500 compounds. About 2,000 (36%) were called active. Roughly 18% stayed inconclusive and do not appear here. The list shows a part of the results.

Look over these answered cases.
{"COMPOUND": "COc1cc(O)c2c(=O)cc(-c3ccc(O)cc3)oc2c1", "normalized growth": "1.01 (inactive)"}
{"COMPOUND": "C/C=C(\\C)C(=O)O[C@@H]1c2c(ccc3ccc(=O)oc23)OC(C)(C)[C@@H]1OC(C)=O", "normalized growth": "0.995 (inactive)"}

Field: next compound
I would be grateful if you could share the reported normalized growth for CC1(C)Oc2ccc3ccc(=O)oc3c2CC1O (stereo not drawn) .
1.02 (inactive)

----------
Test: chemical genetic growth profiling, strain panel (AID 1159580);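 further: tested at 20 µM; growth read once vehicle control cultures reached saturation at 30 °C; 1 = growth at the plate median or of vehicle wells; lower values mean less growth of the strain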
Settings: S. cerevisiae deletion strains, growth OD, locus YHR079C, strain IRE1, hits give low values
The whole screen tested about 5,500 compounds, of which about 2,000 (36%) were called active. Inconclusive results (about 18%) are left out. The list shows a part of the results.
METRIC NAME: normalized growth
// print number alone

# count of solved cases: 8
{"COMPOUND": "O=C(NNc1cc(C(F)(F)F)cc(C(F)(F)F)c1)c1cnc2n(c1=O)CCS2", "METRIC NAME": "normalized growth", "MEASURED RESULT": 0.972}
{"COMPOUND": "CC(C)C[C@@H](NC(=O)OCC1c2ccccc2-c2ccccc21)C(=O)O", "METRIC NAME": "normalized growth", "MEASURED RESULT": 0.976}
{"COMPOUND": "Cc1ccc(OS(=O)(=O)c2c(Cl)sc(Cl)c2Br)c([N+](=O)[O-])n1", "METRIC NAME": "normalized growth", "MEASURED RESULT": 0.929}
{"COMPOUND": "NC[C@H]1O[C@H](OC2[C@@H](N)C[C@@H](N)[C@H](O[C@H]3O[C@H](CO)[C@@H](O)[C@H](N)[C@H]3O)[C@H]2O)[C@H](O)[C@@H](O)[C@@H]1O (stereo partly drawn)", "METRIC NAME": "normalized growth", "MEASURED RESULT": 0.993}
{"COMPOUND": "C[C@@H]1CCC2[C@](C)(CO)[C@@H](O)CC[C@]2(C)[C@@]12CC[C@@](CO)(CCO)O2 (stereo partly drawn)", "METRIC NAME": "normalized growth", "MEASURED RESULT": 0.99}
{"COMPOUND": "NS(=O)(=O)c1cc2c(cc1C(F)(F)F)NC(Cc1ccccc1)NS2(=O)=O (stereo not drawn)", "METRIC NAME": "normalized growth", "MEASURED RESULT": 0.98}
{"COMPOUND": "N/C(=N/OC(=O)c1ccc([N+](=O)[O-])cc1)c1c(Cl)cccc1Cl", "METRIC NAME": "normalized growth", "MEASURED RESULT": 0.536}
{"COMPOUND": "Cc1ccc(Sc2ncccc2NS(=O)(=O)c2ccc(Cl)cc2)cc1", "METRIC NAME": "normalized growth", "MEASURED RESULT": 0.87}

Returns the measured normalized growth for the input compound. Input: COc1cc2c(cc1OC)-c1c(oc3cc(O)cc(O)c3c1=O)CO2
1.04

Quick one: normalized growth of O=C(OCc1ccccc1Br)c1cc([N+](=O)[O-])cc([N+](=O)[O-])c1 ?
0.96

Look at this compound and give its reported normalized growth. O=S(=O)(c1cc(Cl)ccc1Cl)N1CCc2ccccc2C1
0.987

Entry under review: O=c1c2cc(O)c(O)cc2oc2cc(O)c(C3O[C@H](CO)[C@H](O)[C@@H](O)[C@H]3O)c(O)c12 (stereo partly drawn) . Reported normalized growth?
0.982

Name the reported normalized growth value associated with the compound Cc1cc(Br)c(O)c(/C=N\NC(=S)NC(C)(C)C)c1
0.872

----------
Experiment: chemical genetic growth profiling, strain panel (AID 1159580);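 further: tested at 20 µM; growth read once vehicle control cultures reached saturation at 30 °C; 1 = growth at the plate median or of vehicle wells; lower values mean less growth of the strain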
Conditions: S. cerevisiae deletion strains, growth OD, locus YBL061C, strain skt5, hits give low values
Among all 5,500 compounds or so, about 2,000 (36%) were called active. Not shown: some 18% with an inconclusive outcome. The list shows a part of the results.
This listing pairs molecules with measured normalized growth.
Reply briefly: the number, and no unit.

{"MOLECULE": "CC[C@@]1(O)C(=O)OCc2c1cc1n(c2=O)Cc2cc3cc(O)ccc3nc2-1", "normalized growth": 1.01}

Record request: normalized growth value, item O=C(O)c1ccccc1O
0.979

Look up normalized growth: Cc1c(OCC(F)(F)F)ccnc1CS(=O)c1nc2ccccc2[nH]1 (stereo unspecified)
1.02

What value of measured normalized growth is listed for Cc1ccccc1N1C(=O)c2cc(S(N)(=O)=O)c(Cl)cc2NC1C (stereo unspecified) ?
0.987

Recorded normalized growth of CCCCC(=O)O[C@]1(C(=O)CO)[C@@H](C)CC2C3CCC4=CC(=O)C=C[C@]4(C)[C@@]3(F)C(O)C[C@@]21C (stereo partly specified) , please.
0.978

Item CC(=O)OCC(=O)[C@@]1(O)CCC2C3C[C@H](C)C4=CC(=O)C=CC4(C)C3[C@@H](O)CC21C (stereo partly specified) has what recorded normalized growth?
1.01

----------
Assay: chemical genetic growth profiling, strain panel (AID 1159580);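 further: tested at 20 µM; growth read once vehicle control cultures reached saturation at 30 °C; 1 = growth at the plate median or of vehicle wells; lower values mean less growth of the strain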
Settings: S. cerevisiae deletion strains, growth OD, locus YKL085W, strain MDH1, hits give low values
The whole screen tested about 5,500 compounds, of which about 2,000 (36%) were called active. Another 18% or so got no clear call; they are omitted. This is one part of the list.
METRIC NAME: normalized growth
Would you mind answering with just the numeric figure?

Here is how some compounds turned out for normalized growth.
{"COMPOUND": "NCCCCN", "METRIC NAME": "normalized growth", "MEASURED RESULT": 1}
{"COMPOUND": "NC[C@H]1O[C@H](OC2[C@@H](N)C[C@@H](N)[C@H](O[C@H]3O[C@H](CO)[C@@H](O)[C@H](N)[C@H]3O)[C@H]2O)[C@H](O)[C@@H](O)[C@@H]1O (stereo partly drawn)", "METRIC NAME": "normalized growth", "MEASURED RESULT": 0.98}
{"COMPOUND": "CN(C)CC[C@H](c1ccc(Cl)cc1)c1ccccn1", "METRIC NAME": "normalized growth", "MEASURED RESULT": 0.995}
{"COMPOUND": "Oc1ccc2c3c1OC1[C@@H](O)CC[C@@]4(O)[C@@H](C2)N(CC2CCC2)CC[C@]314 (stereo partly drawn)", "METRIC NAME": "normalized growth", "MEASURED RESULT": 1}

Tell me the measured normalized growth of CC(C)=CC1C(CO)C1(C)C (stereo not drawn) , please.
0.998

For the compound COC(=O)CC1C(C)(C)C(OC(C)=O)[C@@H]2[C@@H](OC(C)=O)[C@]34O[C@@]2(O)[C@]1(C)C3CC[C@]1(C)C4=CC(=O)O[C@H]1c1ccoc1 (stereo partly drawn) , what normalized growth is on record?
1.01

What measured normalized growth goes with NC[C@H]1O[C@H](O[C@H]2[C@H](O)[C@@H](O[C@H]3O[C@H](CO)[C@@H](O)[C@H](N)[C@H]3O)[C@H](N)C[C@@H]2N)[C@H](N)[C@@H](O)[C@@H]1O ?
0.993

Given the entry C[N+]1(C)C[C@H](O)[C@H](C(=O)[O-])C1 , report its measured normalized growth.
0.988
